- TARGET: recombinant soluble homotrimeric HA of A/northern shoveler/California/HKWF115/07 (H6) (Influenza A virus A/northern shoveler/California/HKWF115/2007(H6N1))
- ASSAY SUMMARY: HA microarray, BCC supernatant
- TEST CONDITIONS: remark: other sources report otherwise
PROPERTY: Trimeric HA Binding: RLU (RLU)

BINDER	REPORTED
TCN-531 (5091_H13) (antibody, V domains shown) VH: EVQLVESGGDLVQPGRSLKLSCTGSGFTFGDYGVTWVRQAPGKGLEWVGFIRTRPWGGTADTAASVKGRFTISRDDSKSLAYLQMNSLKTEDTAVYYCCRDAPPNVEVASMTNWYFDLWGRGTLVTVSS VL: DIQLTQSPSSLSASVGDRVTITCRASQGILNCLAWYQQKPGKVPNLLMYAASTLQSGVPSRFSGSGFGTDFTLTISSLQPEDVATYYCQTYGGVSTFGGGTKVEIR	43900
TCN-540 (5060_F05) (antibody, V domains shown) VH: QVQLVQSGGGVVQPGRSLRLSCAASGFTFSSYAMHWVRQAPGKGLEWVAIISYDGNDQYYTDSVKGRFTISRDSSKVYLQMHRLRPEDTAVYYCAKEFETSGYFHGSFDYWGQGILVTVSS VL: QSALTQPASVSGSPGQSITISCTGTSSDVGGYNYVSWYQQHPGKAPKLLIYEVTNWPSGVSNRFSGSKSGNTASLTISGLQAEDEADYYCSSYAGSSTWVFGGGTRVTVL	131
TCN-523 (5248_A17) (antibody, V domains shown) VH: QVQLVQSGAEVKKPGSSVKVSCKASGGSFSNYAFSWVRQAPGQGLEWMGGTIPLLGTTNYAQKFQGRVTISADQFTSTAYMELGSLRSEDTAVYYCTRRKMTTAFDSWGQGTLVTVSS VL: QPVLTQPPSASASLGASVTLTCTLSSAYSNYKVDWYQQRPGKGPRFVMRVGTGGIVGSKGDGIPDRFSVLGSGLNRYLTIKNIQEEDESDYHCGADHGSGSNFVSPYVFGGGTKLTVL	46900
TCN-539 (5056_A08) (antibody, V domains shown) VH: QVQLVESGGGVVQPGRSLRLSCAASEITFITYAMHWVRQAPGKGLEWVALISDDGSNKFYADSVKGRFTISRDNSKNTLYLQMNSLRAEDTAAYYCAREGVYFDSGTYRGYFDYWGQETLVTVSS VL: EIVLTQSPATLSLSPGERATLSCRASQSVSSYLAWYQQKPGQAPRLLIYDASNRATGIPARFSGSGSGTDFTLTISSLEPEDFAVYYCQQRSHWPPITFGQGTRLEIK	814
TCN-555 (5246_L16) (antibody, V domains shown) VH: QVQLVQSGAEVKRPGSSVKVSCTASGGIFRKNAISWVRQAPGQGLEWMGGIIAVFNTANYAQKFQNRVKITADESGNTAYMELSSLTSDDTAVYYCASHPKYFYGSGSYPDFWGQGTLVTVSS VL: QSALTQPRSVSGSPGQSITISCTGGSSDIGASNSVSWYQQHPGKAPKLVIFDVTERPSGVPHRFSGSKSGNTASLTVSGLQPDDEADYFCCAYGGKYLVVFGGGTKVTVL	49500
TCN-528 (5087_P17) (antibody, V domains shown) VH: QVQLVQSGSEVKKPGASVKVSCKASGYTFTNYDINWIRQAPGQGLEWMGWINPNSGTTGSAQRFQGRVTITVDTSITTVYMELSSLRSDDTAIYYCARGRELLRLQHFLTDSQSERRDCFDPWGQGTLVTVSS VL: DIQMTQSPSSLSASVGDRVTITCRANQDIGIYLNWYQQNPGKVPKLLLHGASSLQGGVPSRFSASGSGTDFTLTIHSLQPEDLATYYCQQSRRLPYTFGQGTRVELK	46800
TCN-552 (5249_I23) (antibody, V domains shown) VH: QVQVVQSGAEVKKPGSSVRVSCQASGGTFMNYAIIWVRRAPGQGLEWMGGIIPVFPTPNYAQMFQGRVTISTDESRSTSFLELTNLRYEDTAVYYCARRIYHGGNSGFDFWGQGTLVTVSS VL: EIVLTQSPATLSLSPGERATLSCRASQSVGNYLAWYQQKPGQAPRLLIYDSSNRAPGIPARFSGSGSGTDFTLTISSLAPEDFAVYYCQQRSKWPPMYSFGHGTKLEIK	38400
TCN-543 (5081_G23) (antibody, V domains shown) VH: QVHLVQSGAEVRKPGDSVKVSCKTSGYTFSTYPVAWVRQVPGQGLEWMGWISTYNGNTNFAQNFQGRVTLTTDTTTNTAYMEVRSLKFDDTAVYYCARVEGSYRDFWNNQNRFDPWGQGTLVTVSS VL: SYVLTQPPSVSVAPGQTARISCGGSNIGGKSVHWYQQKPGQAPVLVVYDDSGRPSGIPERFSGSNSGDTATLTISRVEAGDEADYFCQVWDNFGGVFGTGTKVTVL	2130
TCN-530 (5248_H10a) (antibody, V domains shown) VH: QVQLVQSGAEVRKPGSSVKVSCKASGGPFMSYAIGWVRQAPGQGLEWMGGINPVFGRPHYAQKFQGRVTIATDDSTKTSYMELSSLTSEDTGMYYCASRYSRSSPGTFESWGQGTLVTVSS VL: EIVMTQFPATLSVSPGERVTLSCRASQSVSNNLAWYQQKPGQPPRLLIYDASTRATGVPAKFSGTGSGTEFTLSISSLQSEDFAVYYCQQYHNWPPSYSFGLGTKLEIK	45300
TCN-537 (3194_D21) (antibody, V domains shown) VH: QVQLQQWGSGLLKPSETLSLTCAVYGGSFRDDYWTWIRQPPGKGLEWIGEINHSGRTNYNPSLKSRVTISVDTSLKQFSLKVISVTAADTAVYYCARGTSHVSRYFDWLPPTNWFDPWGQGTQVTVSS VL: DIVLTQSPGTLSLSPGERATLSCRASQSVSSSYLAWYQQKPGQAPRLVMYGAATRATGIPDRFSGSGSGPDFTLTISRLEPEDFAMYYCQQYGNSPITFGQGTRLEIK	5210
